Consider the following molecules and their measured inhibition readings.
# target_desc: Tyrosine-protein phosphatase non-receptor type 1 (Homo sapiens) (UniProt P18031)
# Sequence (whole entry): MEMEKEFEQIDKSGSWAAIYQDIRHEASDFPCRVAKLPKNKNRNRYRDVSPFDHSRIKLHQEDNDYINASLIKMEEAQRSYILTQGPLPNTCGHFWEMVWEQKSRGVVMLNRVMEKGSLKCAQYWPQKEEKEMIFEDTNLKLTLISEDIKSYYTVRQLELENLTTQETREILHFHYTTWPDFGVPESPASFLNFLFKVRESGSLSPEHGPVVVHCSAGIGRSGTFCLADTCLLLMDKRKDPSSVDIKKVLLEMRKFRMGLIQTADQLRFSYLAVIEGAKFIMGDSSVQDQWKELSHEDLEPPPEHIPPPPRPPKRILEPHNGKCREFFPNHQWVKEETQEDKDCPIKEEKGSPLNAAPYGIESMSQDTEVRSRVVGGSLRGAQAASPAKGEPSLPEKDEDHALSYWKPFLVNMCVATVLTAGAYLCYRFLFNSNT
# assay_details: Inhibitory activity against human protein tyrosine phosphatase 1B (PTP1B) at a concentration of 10 uM
Report as a plain number; the unit % is understood.

Use these answered entries as a reference point.
Task: Entry CCCCCNC(=O)[C@H](Cc1ccc(OCC(=O)O)c(C(=O)O)c1)NC(=O)[C@H](Cc1ccccc1)NC(=O)Cc1c[nH]c2ccccc12 has what inhibition?
Result: 88

Task: Entry CCCCCNC(=O)[C@H](Cc1ccc(OCC(=O)O)c(C(=O)O)c1)NC(=O)[C@H](Cc1ccccc1)NC(=O)Cc1ccccc1 has what inhibition?
Result: 87

Task: Entry CCCCCNC(=O)[C@H](Cc1ccc(OCC(=O)O)c(C(=O)O)c1)NC(=O)[C@H](Cc1ccccc1)NC(=O)Oc1ccccc1 has what inhibition?
Result: 85

Task: Entry CCCCCNC(=O)[C@H](Cc1ccc(OC(C(=O)O)C(=O)O)cc1)NC(=O)[C@H](CC(C)C)NC(=O)OC(C)(C)C has what inhibition?
Result: 24

Task: Entry CCCCCNC(=O)[C@H](Cc1ccc(OCC(=O)O)c(C(=O)O)c1)NC(=O)[C@H](CO)NC(=O)OC(C)(C)C has what inhibition?
Result: 41

Continuing:
Task: Entry CCCCCNC(=O)[C@H](Cc1ccc(OCC(=O)O)c(C(=O)O)c1)NC(=O)[C@H](Cc1ccccc1)NC(=O)CCOC has what inhibition?
Result: 83

Task: Entry CCCCCNC(=O)[C@H](Cc1ccc(OC(C(=O)O)C(=O)O)cc1)NC(=O)[C@H](Cc1c(F)c(F)c(F)c(F)c1F)NC(=O)OC(C)(C)C has what inhibition?
Result: 25

----------
# target_desc: Tyrosine-protein phosphatase non-receptor type 1 (Homo sapiens) (UniProt P18031)
# Sequence (whole entry): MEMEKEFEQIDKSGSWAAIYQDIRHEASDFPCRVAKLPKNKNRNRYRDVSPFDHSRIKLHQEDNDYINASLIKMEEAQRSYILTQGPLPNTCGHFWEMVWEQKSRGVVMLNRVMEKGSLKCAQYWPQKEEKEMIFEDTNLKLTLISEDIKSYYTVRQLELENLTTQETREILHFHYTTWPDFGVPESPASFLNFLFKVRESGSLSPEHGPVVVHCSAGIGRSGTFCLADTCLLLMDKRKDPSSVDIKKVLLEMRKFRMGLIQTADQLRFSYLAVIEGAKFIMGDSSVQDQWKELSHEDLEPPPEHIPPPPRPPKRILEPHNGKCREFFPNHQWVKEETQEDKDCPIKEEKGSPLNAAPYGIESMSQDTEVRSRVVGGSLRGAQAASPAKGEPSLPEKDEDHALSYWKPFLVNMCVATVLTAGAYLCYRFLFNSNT
# assay_details: Inhibitory activity against human protein tyrosine phosphatase 1B (PTP1B) at a concentration of 10 uM
Consider the following molecules and their measured inhibition readings.
Report as a plain number; the unit % is understood.

Use these answered entries as a reference point.
Task: Entry CCCCCNC(=O)[C@H](Cc1ccc(OC(C(=O)O)C(=O)O)cc1)NC(=O)[C@H](C)NC(=O)OC(C)(C)C has what inhibition?
Result: 36

Task: Entry CCCCCNC(=O)[C@H](Cc1ccc(OC(C(=O)O)C(=O)O)cc1)NC(=O)[C@H](Cc1cccc2ccccc12)NC(=O)OC(C)(C)C has what inhibition?
Result: 33

Task: Entry CCCCCNC(=O)[C@H](Cc1ccc(OC(C(=O)O)C(=O)O)cc1)NC(=O)[C@H](CCc1ccccc1)NC(=O)OC(C)(C)C has what inhibition?
Result: 17

Turning to the following molecule.
Task: Entry CCCCCNC(=O)[C@H](Cc1ccc(OCC(=O)O)c(C(=O)O)c1)NC(=O)[C@H](Cc1ccccc1)NC(=O)Cc1ccc(O)cc1 has what inhibition?
Result: 88

----------
# target_desc: Tyrosine-protein phosphatase non-receptor type 1 (Homo sapiens)
# assay_details: Inhibitory activity against human protein tyrosine phosphatase 1B (PTP1B) at a concentration of 1 uM
outcome_measure: inhibition (%)
Report as a plain number; the unit % is understood.

Task: Entry CCCCCNC(=O)[C@H](Cc1ccc(OC(C(=O)O)C(=O)O)cc1)NC(=O)[C@H](COCc1ccccc1)NC(=O)OC(C)(C)C has what inhibition?
Result: 3

Task: Entry CCCCCNC(=O)[C@H](Cc1ccc(OCC(=O)O)c(C(=O)O)c1)NC(=O)[C@H](Cc1ccc(O)cc1)NC(=O)OC(C)(C)C has what inhibition?
Result: 32

Task: Entry CCCCCCCCCCCCCCCCCC(=O)N[C@@H](Cc1ccccc1)C(=O)N[C@@H](Cc1ccc(OCC(=O)O)c(C(=O)O)c1)C(=O)NCCCCC has what inhibition?
Result: 1

Task: Entry CCCCCNC(=O)[C@H](Cc1ccc(OCC(=O)O)c(C(=O)O)c1)NC(=O)[C@H](Cc1ccccc1)NC(=O)Cc1ccc(C(F)(F)F)cc1 has what inhibition?
Result: 39

Task: Entry CCCCCNC(=O)[C@H](Cc1ccc(OC(C(=O)O)C(=O)O)cc1)NC(=O)[C@H](C)NC(=O)OC(C)(C)C has what inhibition?
Result: 7

Task: Entry CCCCCNC(=O)[C@H](Cc1ccc(OC(C(=O)O)C(=O)O)cc1)NC(=O)[C@H](Cc1c(F)c(F)c(F)c(F)c1F)NC(=O)OC(C)(C)C has what inhibition?
Result: 5

Task: Entry CCCCCNC(=O)[C@H](Cc1ccc(OC(C(=O)O)C(=O)O)cc1)NC(=O)[C@H](Cc1ccc2ccccc2c1)NC(=O)OC(C)(C)C has what inhibition?
Result: 3

Task: Entry CCCCCNC(=O)[C@H](Cc1ccc(OC(C(=O)O)C(=O)O)cc1)NC(=O)[C@H](CC(N)=O)NC(=O)OC(C)(C)C has what inhibition?
Result: 9

Task: Entry CCCCCNC(=O)[C@H](Cc1ccc(OCC(=O)O)c(C(=O)O)c1)NC(=O)[C@H](Cc1ccccc1)NC(=O)Cc1ccc(O)cc1 has what inhibition?
Result: 46

Task: Entry CCCCCNC(=O)[C@H](Cc1ccc(OCC(=O)O)c(C(=O)O)c1)NC(=O)[C@H](Cc1ccccc1)NC(=O)Oc1ccccc1 has what inhibition?
Result: 43

Task: Entry CCCCCNC(=O)[C@H](Cc1ccc(OC(C(=O)O)C(=O)O)cc1)NC(=O)[C@H](Cc1ccccc1)NC(=O)CCOC has what inhibition?
Result: 19

Task: Entry CCCCCNC(=O)[C@H](Cc1ccc(OCC(=O)O)c(C(=O)O)c1)NC(=O)[C@H](Cc1ccccc1)NC(=O)Cn1nnnc1S has what inhibition?
Result: 57

Task: Entry CCCCCNC(=O)[C@H](Cc1ccc(OCC(=O)O)c(C(=O)O)c1)NC(=O)[C@H](Cc1ccccc1)NC(=O)Cc1c[nH]c2ccccc12 has what inhibition?
Result: 47

Task: Entry CCCCCNC(=O)[C@H](Cc1ccc(OCC(=O)O)c(C(=O)O)c1)NC(=O)[C@H](C)NC(=O)OC(C)(C)C has what inhibition?
Result: 8

----------
Consider the following compounds and their measured inhibition readings.
# target_desc: Receptor-type tyrosine-protein phosphatase F (Homo sapiens)
# assay_details: Inhibitory activity against phosphatase (LAR) at a concentration of 100 uM
Report as a plain number; the unit % is understood.

Use these answered entries as a reference point.
Task: Entry CCCCCNC(=O)[C@H](Cc1ccc(OC(C(=O)O)C(=O)O)cc1)NC(=O)[C@H](Cc1ccccc1)NS(=O)(=O)Cc1ccccc1 has what inhibition?
Result: 6

Task: Entry CCCCCNC(=O)[C@H](Cc1ccc(OC(C(=O)O)C(=O)O)cc1)NC(=O)[C@H](CC(C)C)NC(=O)OC(C)(C)C has what inhibition?
Result: 3

Task: Entry CCCCCNC(=O)[C@H](Cc1ccc(OC(C(=O)O)C(=O)O)cc1)NC(=O)[C@H](C)NC(=O)OC(C)(C)C has what inhibition?
Result: 0

Task: Entry CCCCCNC(=O)[C@H](Cc1ccc(OC(C(=O)O)C(=O)O)cc1)NC(=O)[C@H](Cc1c(F)c(F)c(F)c(F)c1F)NC(=O)OC(C)(C)C has what inhibition?
Result: 8

Continuing:
Task: Entry CCCCCNC(=O)[C@H](Cc1ccc(OC(C(=O)O)C(=O)O)cc1)NC(=O)[C@H](CSCc1ccccc1)NC(=O)OC(C)(C)C has what inhibition?
Result: 0

Task: Entry CCCCCNC(=O)[C@H](Cc1ccc(OCC(=O)O)c(C(=O)O)c1)NC(=O)[C@H](Cc1ccccc1)NC(=O)CCc1ccccc1 has what inhibition?
Result: 0

Task: Entry CCCCCNC(=O)[C@H](Cc1ccc(OCC(=O)O)c(C(=O)O)c1)NC(=O)[C@H](Cc1ccccc1)NC(=O)Cc1c[nH]c2ccccc12 has what inhibition?
Result: 0
